Listing: selectivity ratio of selected compounds
- EXPERIMENT DESCRIPTION: Selectivity ratio of CC50 for monkey LLC-MK2 cells to EC50 for trypomastigote stage of Trypanosoma cruzi Y
- Type: ADME, cell-based
- MEASUREMENT SETUP: read-out: Ratio CC50/EC50

>  <COMPOUND>
CS(=O)(=O)c1nc2ccc(Cl)cc2nc1Cl

>  <selectivity ratio>
4.1

$$$$
>  <COMPOUND>
CCCCNc1nc2ccccc2nc1S(C)(=O)=O

>  <selectivity ratio>
1.5

$$$$
>  <COMPOUND>
CCCCNc1nc2cc(Cl)ccc2nc1S(C)(=O)=O

>  <selectivity ratio>
23.8

$$$$
>  <COMPOUND>
COc1ccc2nc(Nc3ccccc3)c(Nc3ccccc3)nc2c1

>  <selectivity ratio>
1.2

$$$$

-- ask Item under review: `COc1ccc2nc(S(C)(=O)=O)c(Cl)nc2c1` . Reported selectivity ratio?
-- reply 2.4

-- ask Fill in the blank: the reported selectivity ratio of `COc1ccc2nc(-c3ccccc3)c(S(C)(=O)=O)nc2c1` is ____.
-- reply 5.5

-- ask Which measured selectivity ratio value corresponds to `COc1ccc2nc(NCCO)c(S(C)(=O)=O)nc2c1` ?
-- reply 2

-- ask Fill blank: measured selectivity ratio of the compound `CCCCNc1nc2ccc(OC)cc2nc1S(C)(=O)=O` is ____.
-- reply 10

-- ask Given `COc1ccc2nc(NC3CCCCC3)c(S(C)(=O)=O)nc2c1` , state its recorded selectivity ratio.
-- reply 1.6

-- ask Form field: reported selectivity ratio of `CS(=O)(=O)c1nc2ccc(Br)cc2nc1NCCO`
-- reply 0.7

-- ask Need selectivity ratio of C[S+]([O-])c1nc2ccc(Cl)cc2nc1Cl (stereo unspecified) , thanks.
-- reply 2.9

-- ask Requested field: selectivity ratio. Item: COc1ccc2nc(Cl)c([S+](C)[O-])nc2c1 (stereo unspecified)
-- reply 4.4

-- ask State the recorded selectivity ratio for this entry: `c1ccc(-c2nc3ccccc3nc2-c2ccc(OCCN3CCCCC3)cc2)cc1`
-- reply 1.8

-- ask Fill in: selectivity ratio of `CS/C(=C/[N+](=O)[O-])Nc1ccc(N(C)C)cc1` is ___
-- reply 6

-- ask Query: selectivity ratio; subject: `CCCCNc1nc2cc(Br)ccc2nc1S(C)(=O)=O`
-- reply 17.8

-- ask Would you kindly share the measured selectivity ratio for `COc1ccc2nc(S(C)(=O)=O)c(NCC(C)C)nc2c1` ?
-- reply 3.3

-- ask Give its selectivity ratio value. Item: `COc1ccc2nc(S(C)(=O)=O)c(NC3CCCCC3)nc2c1`
-- reply 3.3

-- ask Name the reported selectivity ratio value associated with the compound COc1ccc2nc(NC3CCCCC3)c([S+](C)[O-])nc2c1 (stereo unspecified)
-- reply 7.1

-- ask Consider the compound shown here: `COc1ccc2nc(S(C)(=O)=O)c(NCCC(C)C)nc2c1` What is its recorded selectivity ratio?
-- reply 4.2

-- ask Look up selectivity ratio: `CS(=O)(=O)c1nc2ccccc2nc1Cl`
-- reply 7.3
